- Species: Mus musculus
- MEASUREMENT_PROTOCOL: Antidepressant activity using yohimbine potentiation test in mice
- Type: functional
MEASUREMENT_NAME: ED50 (mg/kg)
// units = mg/kg; emit number, no label

Worked cases, ED50 given:
CCC(=O)N(c1ccc(C)cc1)C1CCCC1N(C)C (stereo in doubt; 24): 30
CCC(=O)N(c1ccc(OC)cc1)C1CCCC1N(C)C (stereo in doubt; 20): 30
CCC(=O)N(c1ccccc1)C1CCCC1N(C)C (stereo in doubt; 16): 3
CCC(=O)N(c1cccc(C)c1)C1CCCC1N(C)C (stereo in doubt; 44): 3
CCC(=O)N(c1ccc(Cl)c(Cl)c1)C1CCCC1N(C)C (cis isomer) [ECLANAMINE]: 0.9

# ED50 of CCC(=O)N(c1ccc(Cl)c(Cl)c1)C1CCCC1N(C)C (stereo in doubt; 6) [ECLANAMINE] = 0.4

Per the records, this molecule ( CCC(=O)N(c1ccccc1)C1CCCC1N(C)C (cis isomer) ) has ED50 equal to 10
